Entries annotated with measured melting point
measured.metric: melting point

> print(dat)
                         smiles.record  reported.result
 1      CC(C)(C)c1cccc(NC(=O)NC2CC2)c1    169 to 171 °C
 2             CC(C)NC(=O)Nc1cccc(I)c1    153 to 156 °C
 3         CCNC(=O)Nc1cccc(C2CCCCC2)c1    141 to 144 °C
 4            O=C(Nc1ccc(I)cc1)NC1CCC1    208 to 210 °C
 5          O=C(Nc1cccc(I)c1)NC1CC=CC1    151 to 153 °C
 6             O=C(Nc1cccc(I)c1)NC1CC1    153 to 154 °C
 7  CC(C)(C)CNC(=O)Nc1cccc(C(C)(C)C)c1    145 to 147 °C
 8   CC(C)(C)NC(=O)Nc1cccc(C(C)(C)C)c1    161 to 170 °C
 9         CCNC(=O)Nc1ccc(C(C)(C)C)cc1    136 to 139 °C
10           S=C(NCC1CCC1)Nc1cccc(I)c1    136 to 147 °C
11              COCCNC(=O)Nc1cccc(I)c1     99 to 101 °C
12           O=C(Nc1ccc(I)cc1)NC1CCCC1    188 to 191 °C
13    S=C(Nc1cccc(C2CCCCC2)c1)NC1CCCC1    129 to 142 °C
14    CC(C)(C)c1cccc(NC(=S)NCC2CCC2)c1    105 to 111 °C
15      CC(C)NC(=O)Nc1ccc(C2CCCCC2)cc1    163 to 170 °C
16      S=C(Nc1ccc(C2CCCCC2)cc1)NC1CC1    157 to 165 °C
17    CC(C)(C)c1ccc(NC(=S)NCC2CCC2)cc1    129 to 146 °C
18          O=C(Nc1ccc(I)cc1)NC1CC=CC1    201 to 202 °C
19    CCC(CC)NC(=O)Nc1ccc(C2CCCCC2)cc1    174 to 176 °C
20      CC(C)NC(=O)Nc1cccc(C2CCCCC2)c1    178 to 181 °C
21            O=C(NCC1CC1)Nc1cccc(I)c1    139 to 140 °C
22     CC(C)(C)c1cccc(NC(=O)NC2CCC2)c1    165 to 166 °C
23          CC(C)(C)NC(=O)Nc1ccc(I)cc1    179 to 199 °C
24   CC(C)(C)c1cccc(NC(=O)NC2CC=CC2)c1    135 to 137 °C
25             S=C(Nc1ccc(I)cc1)NC1CC1    166 to 180 °C
26  CC(C)(C)CNC(=O)Nc1ccc(C2CCCCC2)cc1    167 to 169 °C
27    O=C(NCC1CCC1)Nc1cccc(C2CCCCC2)c1    115 to 120 °C
28   CC(C)(C)c1cccc(NC(=O)NCC2CCCC2)c1    113 to 114 °C
29           S=C(NCC1CCC1)Nc1ccc(I)cc1     98 to 108 °C
30           S=C(Nc1ccc(I)cc1)NC1CCCC1    154 to 162 °C
31      O=C(Nc1ccc(C2CCCCC2)cc1)NC1CC1    173 to 176 °C
32            O=C(Nc1cccc(I)c1)NC1CCC1    178 to 180 °C
33        CCCNC(=O)Nc1cccc(C2CCCCC2)c1    131 to 134 °C
34    O=C(Nc1cccc(C2CCCCC2)c1)NC1CCCC1    132 to 137 °C
35              COCCNC(=O)Nc1ccc(I)cc1    141 to 143 °C
36  CC(C)(C)CNC(=O)Nc1ccc(C(C)(C)C)cc1    185 to 187 °C
37     CC(C)(C)c1cccc(NC(=O)NCC2CC2)c1    165 to 166 °C
38    CC(C)(C)c1ccc(NC(=O)NCC2CCC2)cc1    179 to 184 °C
39        CCCNC(=O)Nc1ccc(C2CCCCC2)cc1    166 to 168 °C
40               CCCNC(=O)Nc1cccc(I)c1    132 to 136 °C
41    CCC(CC)NC(=O)Nc1ccc(C(C)(C)C)cc1    119 to 121 °C
